Exercise: state measured Ligand Efficiency MMP-2 for each of the molecules provided.
Target: MMP-2 (Homo sapiens, UniProt P08253)
Construct: Catalytic domains of MMP-2, -8, -9, and -13 were obtained from Enzo Life Sciences; purchased Enzo Life Sciences
Sequence (P08253 110-446 limits assumed): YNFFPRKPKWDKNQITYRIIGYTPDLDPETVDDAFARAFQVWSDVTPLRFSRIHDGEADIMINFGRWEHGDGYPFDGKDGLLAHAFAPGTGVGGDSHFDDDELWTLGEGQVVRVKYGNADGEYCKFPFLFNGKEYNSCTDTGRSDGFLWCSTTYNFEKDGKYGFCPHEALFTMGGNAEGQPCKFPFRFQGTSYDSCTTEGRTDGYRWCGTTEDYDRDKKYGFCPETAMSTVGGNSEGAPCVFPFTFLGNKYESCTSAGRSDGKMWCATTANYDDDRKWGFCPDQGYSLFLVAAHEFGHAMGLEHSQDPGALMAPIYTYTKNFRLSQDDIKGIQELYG
Test: fluorometric MMP inhibition assay, MMP-2 catalytic domain
Assay type: biochemical
Conditions: calculated from IC50 values of Table 2
Numbers only.

In [3]: df
Out[3]:
                                   molecule                          targetsystem  endpointvalue
0    O=P(O)(O)C(Nc1nc2ccc(F)cc2s1)P(=O)(O)O  MMP-2 (Homo sapiens, UniProt P08253)           0.35
1  O=P(O)(O)C(NS(=O)(=O)c1ccc(-c2ccccc2)cc1)P(=O)(O)O [ML115, reference compound]  MMP-2 (Homo sapiens, UniProt P08253)           0.38
2  CC(N)C(=O)Nc1ccc2nc(NC(P(=O)(O)O)P(=O)(O)O)sc2c1 (centres unmarked)  MMP-2 (Homo sapiens, UniProt P08253)           0.28
3  O=C(Nc1ccc2nc(NC(P(=O)(O)O)P(=O)(O)O)sc2c1)c1ccc(Br)cc1  MMP-2 (Homo sapiens, UniProt P08253)           0.22
4  O=C(Cc1ccccc1)Nc1ccc2nc(NC(P(=O)(O)O)P(=O)(O)O)sc2c1  MMP-2 (Homo sapiens, UniProt P08253)           0.27

Can you give me Ligand Efficiency MMP-2 for all of these, one by one?
1. O=P(O)(O)C(CNc1nc2ccc(Cl)cc2s1)P(=O)(O)O
2. O=C(Nc1ccccc1)Nc1ccc2nc(NC(P(=O)(O)O)P(=O)(O)O)sc2c1
3. O=[N+]([O-])c1ccc2nc(NC(P(=O)(O)O)P(=O)(O)O)sc2c1

1. 0.35
2. 0.26
3. 0.33

====

Target: MMP-9 (Homo sapiens)
Construct: Catalytic domains of MMP-2, -8, -9, and -13 were obtained from Enzo Life Sciences; purchased Enzo Life Sciences
Sequence (P14780 107-444 limits assumed): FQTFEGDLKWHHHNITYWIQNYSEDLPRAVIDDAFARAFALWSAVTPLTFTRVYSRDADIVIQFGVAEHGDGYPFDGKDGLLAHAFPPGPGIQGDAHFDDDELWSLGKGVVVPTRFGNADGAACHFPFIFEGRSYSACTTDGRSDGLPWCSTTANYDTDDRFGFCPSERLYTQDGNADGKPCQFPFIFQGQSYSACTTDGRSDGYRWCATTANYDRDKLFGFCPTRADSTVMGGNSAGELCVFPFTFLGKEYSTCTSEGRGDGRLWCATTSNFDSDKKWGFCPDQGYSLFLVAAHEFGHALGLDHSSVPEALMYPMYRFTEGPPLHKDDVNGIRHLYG
Experiment: fluorometric MMP inhibition assay, MMP-9 catalytic domain
Type: biochemical
Conditions: calculated from IC50 values of Table 2
Exercise: state measured Ligand Efficiency MMP-9 for each of the molecules provided.
One number for each entry.

Reference set (3 entries):
>>> print(df.to_string())
                          structureassmiles  endpointvalue
0  O=C(Nc1ccc2nc(NC(P(=O)(O)O)P(=O)(O)O)sc2c1)c1ccc([N+](=O)[O-])cc1           0.23
1  O=C1c2ccccc2C(=O)N1c1ccc2nc(NC(P(=O)(O)O)P(=O)(O)O)sc2c1           0.24
2  O=C(Nc1ccccc1)Nc1ccc2nc(NC(P(=O)(O)O)P(=O)(O)O)sc2c1           0.23

Can you give me Ligand Efficiency MMP-9 for all of these, one by one?
1. O=C(Cc1ccccc1)Nc1ccc2nc(NC(P(=O)(O)O)P(=O)(O)O)sc2c1
2. O=[N+]([O-])c1ccc2nc(NC(P(=O)(O)O)P(=O)(O)O)sc2c1
3. O=C(Nc1ccc2nc(NC(P(=O)(O)O)P(=O)(O)O)sc2c1)c1ccccc1
4. O=P(O)(O)C(Nc1nc2ccc(Cl)cc2s1)P(=O)(O)O
5. O=P(O)(O)C(CNc1nc2ccc(Cl)cc2s1)P(=O)(O)O

0.22
0.32
0.25
0.32
0.29

Value of Ligand Efficiency MMP-9 reported for the molecule O=P(O)(O)C(Nc1nc2ccc(F)cc2s1)P(=O)(O)O is 0.31
